Listed below: self-cleavage kobs at 2500 uM GlcN6P values for each entry.
B1: glmS ribozyme (parent)
chain: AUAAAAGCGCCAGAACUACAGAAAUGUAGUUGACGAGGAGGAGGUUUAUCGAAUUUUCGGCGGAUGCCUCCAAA

- Variants of: B1
- Assay protocol: self-cleavage kobs at 2500 uM GlcN6P; higher = faster cleavage; RNA array
- Test context: with glucosamine-6-phosphate
Variants at the floor of the assay were thinned out.
Measured quantity: self-cleavage kobs at 2500 uM GlcN6P

1. AUAAAAGCGCUAGAGCUACAGAAAUGUAGUUGACGAAGAGGAGGUUUAUCGAAUUUUCGACGGAUGCCUCCAAA [C11U A15G G37A G60A]: < 1e-05 s⁻¹
2. AUAAAAGCGCCAGAACUACAGAAAUGUAGUUGACGAGGAGGAGGUUUAGCGAAUUUUCGGCGGAUGUCUCCAAA [U49G C67U]: 0.000257 s⁻¹
3. AUAAAAGAGCCAGAACUACAGAAAUGUACUUGACGAGGAGGAGGUUUAUUGAAUUUUCGGCGGAUGCCUCCAAA [C8A G29C C50U]: < 1e-05 s⁻¹
